Target: T1, recombinant human NKG2D-Fc (human, UniProt P26718 73-216)
T1 construct: extracellular domain; also called human NKG2D-Fc fusion protein; NKG2D-Fc-biotin; not shown: human IgG1 Fc domain
T1 sequence (looked up): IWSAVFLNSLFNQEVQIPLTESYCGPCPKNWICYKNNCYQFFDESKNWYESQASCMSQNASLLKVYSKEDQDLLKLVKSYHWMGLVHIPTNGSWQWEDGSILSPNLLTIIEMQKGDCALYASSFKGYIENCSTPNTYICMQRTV
Test: ELISA on coated NKG2D-Fc;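 also: titrated NKG2D-binding domains on plate-bound human, mouse or cynomolgus NKG2D ectodomain–human IgG1 Fc fusions, detected with HRP anti-human kappa secondary and TMB, absorbance at 450 nm corrected at 540 nm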
READOUT_LABEL: binding result

{"BINDER": "ADI-29405 (antibody, V domains shown) VH: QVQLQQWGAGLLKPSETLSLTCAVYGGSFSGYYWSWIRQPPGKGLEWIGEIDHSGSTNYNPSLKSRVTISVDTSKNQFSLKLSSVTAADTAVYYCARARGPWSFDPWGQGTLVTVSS VL: DIQMTQSPSTLSASVGDRVTITCRASQSISSWLAWYQQKPGKAPKLLIYKASSLESGVPSRFSGSGSGTEFTLTISSLQPDDFATYYCQQYGSFPTFGGGTKVEIK", "VALUE_REPORTED": "binds"}
{"BINDER": "ADI-27749 (antibody, V domains shown, also called A49) VH: EVQLVESGGGLVKPGGSLRLSCAASGFTFSSYSMNWVRQAPGKGLEWVSSISSSSSYIYYADSVKGRFTISRDNAKNSLYLQMNSLRAEDTAVYYCARGAPMGAAAGWFDPWGQGTLVTVSS VL: DIQMTQSPSSVSASVGDRVTITCRASQGISSWLAWYQQKPGKAPKLLIYAASSLQSGVPSRFSGSGSGTDFTLTISSLQPEDFATYYCQQGVSFPRTFGGGTKVEIK", "VALUE_REPORTED": "binds"}
{"BINDER": "ADI-29401 (antibody, V domains shown) VH: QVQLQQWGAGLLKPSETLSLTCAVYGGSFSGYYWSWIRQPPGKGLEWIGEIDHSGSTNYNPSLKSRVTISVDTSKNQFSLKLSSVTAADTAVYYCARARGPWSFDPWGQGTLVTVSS VL: DIQMTQSPSTLSASVGDRVTITCRASQSIGSWLAWYQQKPGKAPKLLIYKASSLESGVPSRFSGSGSGTEFTLTISSLQPDDFATYYCQQYDIYPTFGGGTKVEIK", "VALUE_REPORTED": "binds"}
